test system: Cryptococcus neoformans; settings: Concentration 20 uM; ASSAY_TEST Inhibition of Fungal Growth; detection method Resazurin; Absorption (OD600-OD570); plate type 384well; NBS; CORNING #3640
Description: Antifungal activity against Cryptococcus neoformans H99 ATCC 208821 (CO-ADD:FG_002); MIC in YNB media using NBS plates, by Resazurin OD(600-570)
Results with a measured potency or affinity are listed apart.
Measurement Name: Inhibition (%)
Give just the numeric value; % need not be written.

Reference set, count: 2
Cc1nn(C)c(C)c1NS(=O)(=O)c1c(Cl)cc(-c2ccnc(N3CCNCC3)c2)cc1Cl: -5.82
CO[C@@H]1CN(c2ccc(C#CC3(O)CN4CCC3CC4)c(Cc3ccccc3)n2)C[C@H]1O (stereo partly drawn): 0.17

Please examine the following record next.
Sure, the documented Inhibition for Nc1c2c(nc3sc4c(c13)CCCC4)CCCC2 is -9.94
